# system under test: recombinant human ALK enzyme (Homo sapiens, UniProt Q9UM73)
# Construct: purchased Carna Biosciences 08-518
# Sequence (Q9UM73 1058-1620 limits assumed): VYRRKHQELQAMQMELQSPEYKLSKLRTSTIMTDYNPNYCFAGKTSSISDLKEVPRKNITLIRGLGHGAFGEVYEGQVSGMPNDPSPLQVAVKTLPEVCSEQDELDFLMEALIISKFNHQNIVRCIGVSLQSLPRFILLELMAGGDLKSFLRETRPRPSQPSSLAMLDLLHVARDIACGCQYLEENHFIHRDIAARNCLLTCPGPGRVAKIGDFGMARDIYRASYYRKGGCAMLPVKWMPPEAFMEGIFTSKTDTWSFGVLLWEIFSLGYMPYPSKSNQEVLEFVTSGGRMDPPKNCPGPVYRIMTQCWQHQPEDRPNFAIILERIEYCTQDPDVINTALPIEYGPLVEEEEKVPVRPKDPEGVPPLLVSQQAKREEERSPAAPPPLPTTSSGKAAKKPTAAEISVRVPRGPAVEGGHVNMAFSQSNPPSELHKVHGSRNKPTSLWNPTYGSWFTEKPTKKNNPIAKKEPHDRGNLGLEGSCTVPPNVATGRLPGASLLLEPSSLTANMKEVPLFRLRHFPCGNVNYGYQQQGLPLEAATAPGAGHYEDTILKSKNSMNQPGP
# protocol notes: ALK WT cell free assay (TR-FRET)
# Type: biochemical
# condition set: compound 1 μM, 1 μM ATP, 30 min pre-incubation, read-out: Percentage Inhibition 1 μM
metric name: inhibition at 1 µM (%)

compound: Cc1nn(Cc2cc(F)cc(F)c2)c(C)c1-c1c[nH]c2ncc(-c3cnn(C)c3)cc12 [Example-19]
unit abbrev: %
experimental result: 96

compound: Cn1cc(-c2cnc3[nH]cc(-c4cnn(Cc5cccc(O)c5)c4)c3c2)cn1 [Example-20]
unit abbrev: %
experimental result: 99

compound: COC(=O)c1cccc(Cn2cc(-c3c[nH]c4ncc(-c5cnn(C)c5)cc34)cn2)c1 [Example-6]
unit abbrev: %
experimental result: 42

compound: Cn1cc(-c2cnc3[nH]cc(-c4cnn(Cc5cccc([N+](=O)[O-])c5)c4)c3c2)cn1 [Example-16]
unit abbrev: %
experimental result: 92

compound: OCCCn1cc(-c2cnc3[nH]cc(-c4cnn(Cc5cccc(F)c5)c4)c3c2)cn1 [Example-30]
unit abbrev: %
experimental result: 99

compound: C[C@H](O)CN1CCC(n2cc(-c3cnc4[nH]cc(-c5cnn(Cc6cccc(F)c6)c5)c4c3)cn2)CC1 [Example-32]
unit abbrev: %
experimental result: 99

compound: OCCn1cc(-c2cnc3[nH]cc(-c4cnn(Cc5cccc(F)c5)c4)c3c2)cn1 [Example-28]
unit abbrev: %
experimental result: 98

compound: Cn1cc(-c2cnc3[nH]cc(-c4cn(Cc5cccc(F)c5)nc4C(C)(C)C)c3c2)cn1 [Example-15]
unit abbrev: %
experimental result: 6

compound: Fc1cc(F)cc(Cn2cc(-c3c[nH]c4ncc(-c5cnn(C6CCNCC6)c5)cc34)cn2)c1 [Example-22]
unit abbrev: %
experimental result: 100

compound: Cc1nn(Cc2cccc(F)c2)c(C)c1-c1c[nH]c2ncc(-c3cnn(C)c3)cc12 [Example-18]
unit abbrev: %
experimental result: 96

compound: Fc1cccc(Cn2cc(-c3c[nH]c4ncc(-c5cnn(C6CCNCC6)c5)cc34)cn2)c1 [Example-23]
unit abbrev: %
experimental result: 94

compound: Cn1cc(-c2cnc3[nH]cc(-c4cnn(Cc5ccc(F)cc5)c4)c3c2)cn1 [Example-4]
unit abbrev: %
experimental result: 93

compound: Cn1cc(-c2cnc3[nH]cc(-c4cnn(Cc5cccc(Cl)c5)c4)c3c2)cn1 [Example-13]
unit abbrev: %
experimental result: 96

compound: Cn1cc(-c2cnc3[nH]cc(-c4cnn(Cc5ccccc5F)c4)c3c2)cn1 [Example-1]
unit abbrev: %
experimental result: 95

compound: Cn1cc(-c2cnc3[nH]cc(-c4cnn(Cc5cccc(C(F)(F)F)c5)c4)c3c2)cn1 [Example-11]
unit abbrev: %
experimental result: 77

compound: Cc1nn(Cc2cc(Cl)ccc2F)cc1-c1c[nH]c2ncc(-c3cnn(C)c3)cc12 [Example-7]
unit abbrev: %
experimental result: 93

* * *

# system under test: recombinant human ALK enzyme (Homo sapiens)
# protocol notes: ALK WT cell free assay (TR-FRET)
# condition set: 1 μM ATP, 10 point dose response, read-out: IC50 value (in range)
metric name: IC50

smiles entry: Fc1cc(F)cc(Cn2cc(-c3c[nH]c4ncc(-c5cnn(C6CCNCC6)c5)cc34)cn2)c1
metric name: IC50
experimental result: < 50 nM
--
smiles entry: Cc1nn(Cc2cccc(F)c2)c(C)c1-c1c[nH]c2ncc(-c3cnn(C)c3)cc12
metric name: IC50
experimental result: < 50 nM
--
smiles entry: Cn1cc(-c2cnc3[nH]cc(-c4cnn(Cc5cccc([N+](=O)[O-])c5)c4)c3c2)cn1
metric name: IC50
experimental result: 50 to 200 nM
--
smiles entry: Cn1cc(-c2cnc3[nH]cc(-c4cn(Cc5cccc(F)c5)nc4C(F)(F)F)c3c2)cn1
metric name: IC50
experimental result: 50 to 200 nM
--
smiles entry: Cn1cc(-c2cnc3[nH]cc(-c4cnn(Cc5ccccc5)c4)c3c2)cn1
metric name: IC50
experimental result: 50 to 200 nM
--
smiles entry: Cn1cc(-c2cnc3[nH]cc(-c4cnn(Cc5cccc(C(F)(F)F)c5)c4)c3c2)cn1
metric name: IC50
experimental result: > 200 nM
--
smiles entry: Cc1c(-c2c[nH]c3ncc(-c4cnn(C5CCNCC5)c4)cc23)cnn1Cc1cccc(F)c1
metric name: IC50
experimental result: < 50 nM
--
smiles entry: Cc1nn(Cc2cc(F)cc(F)c2)c(C)c1-c1c[nH]c2ncc(-c3cnn(C)c3)cc12
metric name: IC50
experimental result: < 50 nM
